test system: Trypanosoma brucei brucei; assay: WHO-TDR: Human African Trypanosomiasis (HAT); assay type: functional, organism-based; conditions: Squib-427
Measured property: IC50 (µg/mL)
Dear colleague, please return just the value in µg/mL, with no unit written.

> print(dat)
                                   compound  readout.value
1  CCOC(=O)c1c(NC(=O)C2COc3ccccc3O2)sc2c1CC(C)(C)NC2(C)C (centres undefined)          0.396
2  CCN1CCc2c(sc(NC(=O)c3ccc(S(=O)(=O)N4CC5(C)CC4CC(C)(C)C5)cc3)c2C(N)=O)C1 (centres undefined)           3.82
3  CCOC(=O)c1c(NC(=O)C(C)n2c(-n3nc(C)cc3C)nc(CC)cc2=O)sc2c1CCC2 (centres undefined)           4.64

Task item: IC50 lookup needed for CCOC(=O)N1CCc2c(sc(NC(=O)c3ccco3)c2-c2nc3ccccc3s2)C1 , thanks.
Reply: 0.377

Task item: Would you mind telling me what IC50 value was observed for COc1ccc(C)cc1S(=O)(=O)NCCNc1ccc(Nc2cccc(C)n2)nn1 ?
Reply: 5.42
